Settings: human gut metagenome, 24 h, 2 µM; also: call rule not given here

Molecule | Bacterial Biotransformation
CN1CCC(=C2c3ccccc3CC(=O)c3sccc32)CC1.O=C(O)/C=C/C(=O)O [KETOTIFEN FUMARATE] | Compound metabolized
COc1ccnc(C[S+]([O-])c2nc3ccc(OC(F)F)cc3[nH]2)c1OC (centres undefined) | Compound metabolized
CC#C[C@]1(O)CC[C@H]2[C@@H]3CCC4=CC(=O)CCC4=C3[C@@H](c3ccc(N(C)C)cc3)C[C@@]21C | Compound NOT metabolized
CCN1CCCC1CNC(=O)c1cc(S(=O)(=O)CC)c(N)cc1OC (centres undefined) [AMISULPRIDE] | Compound metabolized
CN(C)CCc1c[nH]c2ccc(CS(=O)(=O)N3CCCC3)cc12 | Compound metabolized
CC(=O)OCC(=O)NCCCOc1cccc(CN2CCCCC2)c1 [ROXATIDINE ACETATE] | Compound metabolized
CN(C)CCOC(C)(c1ccccc1)c1ccccn1.O=C(O)CCC(=O)O (centres undefined) [DOXYLAMINE SUCCINATE] | Compound NOT metabolized
O=C1CN2Cc3c(ccc(Cl)c3Cl)N=C2N1 [ANAGRELIDE] | Compound metabolized
Cc1cc(C)cc(OCC2CNC(=O)O2)c1 (centres undefined) | Compound metabolized

* * *

Assay: The drug is tested on WLS-010 corresponding to human gut metagenome with ENA study accession number: PRJEB37062 and ENA sample accession number: ERS12561743 for biotransformation under anaerobic condition. The drug concentrations were measured over 9 timepoints collected between 0 and 24 hours of incubation by liquid-chromatography-coupled mass spectrometry (LC–MS)
Conditions: 2 µM

Compound | Bacterial Biotransformation
CCOc1ccccc1OCCN[C@H](C)Cc1ccc(OC)c(S(N)(=O)=O)c1.Cl [TAMSULOSIN HYDROCHLORIDE] | Compound NOT metabolized
CCN(CC)CCNC(=O)c1ccc(NC(C)=O)cc1 [ACECAINIDE] | Compound NOT metabolized
CN1CCC(OC(c2ccccc2)c2ccccc2)CC1 | Compound NOT metabolized
COc1ccc2cc([C@H](C)C(=O)O)ccc2c1 | Compound metabolized
CC(C)[C@H]1CC[C@H](C(=O)N[C@H](Cc2ccccc2)C(=O)O)CC1 [NATEGLINIDE] | Compound metabolized
CC(=O)OCC(=O)[C@@]1(OC(C)=O)[C@@H](C)C[C@H]2[C@@H]3C[C@H](F)C4=CC(=O)C=C[C@]4(C)[C@@]3(F)[C@@H](O)C[C@@]21C [DIFLORASONE DIACETATE] | Compound metabolized
CN1CCC(=C2c3ccccc3CC(=O)c3sccc32)CC1.O=C(O)/C=C/C(=O)O [KETOTIFEN FUMARATE] | Compound NOT metabolized
CC(C)NCC(O)COc1ccc(CC(N)=O)cc1 (stereo not drawn) | Compound NOT metabolized

* * *

Assay: The drug is tested on WLS-170 corresponding to human gut metagenome with ENA study accession number: PRJEB37062 and ENA sample accession number: ERS12561762 for biotransformation under anaerobic condition. The drug concentrations were measured over 9 timepoints collected between 0 and 24 hours of incubation by liquid-chromatography-coupled mass spectrometry (LC–MS)
Conditions: 2 µM
Reported metric: Bacterial Biotransformation

Compound | Reported metric | Result
COCCCC/C(=N\OCCN)c1ccc(C(F)(F)F)cc1.O=C(O)/C=C\C(=O)O [FLUVOXAMINE MALEATE] | Bacterial Biotransformation | Compound NOT metabolized
CCCCCNC(=N)N/N=C/c1c[nH]c2ccc(OC)cc12.O=C(O)/C=C\C(=O)O [TEGASEROD MALEATE] | Bacterial Biotransformation | Compound metabolized
CN(C)CCc1c[nH]c2ccc(CS(=O)(=O)N3CCCC3)cc12 [ALMOTRIPTAN] | Bacterial Biotransformation | Compound metabolized
COc1ccc2cc([C@H](C)C(=O)O)ccc2c1 [NAPROXEN] | Bacterial Biotransformation | Compound metabolized
COc1ccc(/C=C/C(=O)Nc2ccccc2C(=O)O)cc1OC | Bacterial Biotransformation | Compound NOT metabolized
CN(C)CCOC(C)(c1ccccc1)c1ccccn1.O=C(O)CCC(=O)O (centres undefined) [DOXYLAMINE SUCCINATE] | Bacterial Biotransformation | Compound NOT metabolized
Cc1ccccc1C(OCCN(C)C)c1ccccc1.O=C(O)CC(O)(CC(=O)O)C(=O)O (centres undefined) [ORPHENADRINE CITRATE] | Bacterial Biotransformation | Compound metabolized
OC(c1cc(C(F)(F)F)nc2c(C(F)(F)F)cccc12)C1CCCCN1 (centres undefined) [MEFLOQUINE] | Bacterial Biotransformation | Compound metabolized
COc1cc(C(=O)NCc2ccc(OCCN(C)C)cc2)cc(OC)c1OC [TRIMETHOBENZAMIDE] | Bacterial Biotransformation | Compound NOT metabolized
CC(NC(C)(C)C)C(=O)c1cccc(Cl)c1 (centres undefined) [BUPROPION] | Bacterial Biotransformation | Compound NOT metabolized
COc1ccc([C@@H]2Sc3ccccc3N(CCN(C)C)C(=O)[C@@H]2OC(C)=O)cc1 [DILTIAZEM] | Bacterial Biotransformation | Compound metabolized
CC(C)NCC(O)COc1ccc(CC(N)=O)cc1 (centres undefined) [ATENOLOL] | Bacterial Biotransformation | Compound metabolized
N#Cc1ccc2c(c1)N(CCCN1CCC(O)CC1)c1ccccc1S2 [PERICIAZINE] | Bacterial Biotransformation | Compound metabolized
COc1cc(NC(C)CCCN)c2ncccc2c1.O=P(O)(O)O.O=P(O)(O)O (centres undefined) [PRIMAQUINE PHOSPHATE] | Bacterial Biotransformation | Compound NOT metabolized

Origin of values: ChEMBL document CHEMBL5724914
